Every entry's value here was drawn from patent US20180037631A1.

# ASSAY TARGET: EGFR on the surface of human tumour cells (A431, H292) (human, UniProt P00533 25-1210)
# PROCEDURE TEXT: cell-based or functional assay
RECORDED METRIC: IC50, EGF-stimulated EGFR phosphorylation, H292 cells, ELISA (µM)
One number for each entry, in µM.

# IC50, EGF-stimulated EGFR phosphorylation, H292 cells, ELISA lookup, item I1-GS10-E1, His-tagged, non-pegylated (designed binder) MGVSDVPRDLEVVAATPTSLLISWSARLKVARYYRITYGETGGNSPVQEFTVPKNVYTATISGLKPGVDYTITVYAVTRFRDYQPISINYRTEIDKGSGSGSGSGSGSGSGSGSGSVSDVPRDLEVVAATPTSLLISWVAGAEDYQYYRITYGETGGNSPVQEFTVPHDLVTATISGLKPGVDYTITVYAVTDMMHVEYTEHPISINYRTEIDKPSQHHHHHH 0.042
